// values below are reported kon
# target: T1, human big-endothelin-1 (big-ET-1) (human)
# T1 construct: 38 amino acid peptide; also called human big-ET-1; hBig-ET-1
# T1 peptide: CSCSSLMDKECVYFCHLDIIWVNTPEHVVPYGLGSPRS
# experiment_notes: SPR (Biacore T200), 37 C, mAb capture, peptide analyte
Your answer is read as M⁻¹ s⁻¹, so omit the unit and give the number.

| binder | value_observed |
| --- | --- |
| H1M6494N (antibody, V domains shown, Hybridoma antibody, human variable domains, mouse constant domains; prefix H1M marks the Fc region (isotype not spelled out)) VH: EVQLVESGGGLVKPGGSLRVSCVASGFTFSNAWMTWVRQTPGKGLECVGRIKSRTDGGTVDYVAPVKGRFTISRDDSKNTLYLQMNSLKAEDTAVYYCRADLDYWGQGTLVTVSS VL: DVVMTQSPLSLPVSLGQPASISCRSSQSLVHSDGITYLNWFQQRPGQSPRRLIYKISNRDSGVPDRFSGSGSGTDFTLKFSRVEAEDVGVYFCMQGTHWPYTFGQGTKLEIK | 239000 |

Note: attention shifts to another entry.
kon for H4H6323P (antibody, V domains shown, Human IgG4 Fc (prefix H4H)) VH: QITLKESGPPLVKPTQTLTLTCTFSGFSLNTNGMGVGWIRQPPGKALEWLTLIYWNDDKRYSPSLKTRLTITKDTSKNQVVLTMTNMDPVDTATYYCARFGSGTYWGQGTLVTVSS VL: DIVMTQSPLSLPVTPGEPASISCRSSQSLLHSYGYNFLDWFLQKPGQSPQLLIYLGSHRASGVPDRFSGSGSGTDFTLKISRVEAEDVGVYYCMQALQTPLTFGGGTKVEIK is 565000
